study target: SARS-CoV-2 receptor binding domain (RBD), amino acids 319-541, octahistidine tag (SARS-CoV-2, UniProt P0DTC2 319-541)
protocol text: not named there; ELISA in Example 4
result type: binding result

- SEQ ID NOs: 557/561 (HCVR/LCVR) (antibody, V domains shown) VH: EVQLVESGGGVVQPGRSLRLSCAASGFTFSSYAMHWVRQAPGKGLEWVAVISYDGSYKYYADSVKGRFTISRDNSKNTLYLQMNSLTAEDTAVYYCAREGSRQWLVIYFDYWGQGTLVTVSS VL: AIRMTQSPSSLSASVGDRVTITCRASQSISSYLNWYQQKPGKAPKLLIYAASSLQSGVPSRFSGSGSGTDFTLTISSLQPEDFATYYCQQSYTTFIYTFGQGTKLEIK: binds
